# Tested on: Pseudaletia separate Walker
# measurementProtocol: Insecticidal activities to armyworm, leaf dipping and feeding
# Format: in vivo
# studyConditions: in vivo
# Pseudaletia separate Walker Mortality (%) 500 ppm values compiled below
propertyLabel: Pseudaletia separate Walker Mortality (%) 500 ppm

molecule: O=[N+]([O-])C(=Cc1cc(Br)c(Br)o1)C1=NCCCN1Cc1ccc(Cl)nc1
reported: 100%
//
molecule: O=[N+]([O-])C(=Cc1cc(Br)c(Br)o1)C1=NCCN1CC1CCOC1 (centres unmarked)
reported: 100%
//
molecule: C[N+]1=C(C(=Cc2cc(Cl)co2)[N+](=O)[O-])N(Cc2ccc(Cl)nc2)CC1.[Cl-]
reported: 100%
//
molecule: C[N+]1=C(C(=Cc2cc(Cl)c(Cl)o2)[N+](=O)[O-])N(Cc2ccc(Cl)nc2)CC1.[Cl-]
reported: 100%
//
molecule: O=[N+]([O-])C(=Cc1oc(Br)cc1Br)C1=NCCN1Cc1ccc(Cl)nc1
reported: 100%
//
molecule: CC(=C(C1=NCCN1Cc1ccc(Cl)nc1)[N+](=O)[O-])c1ccsc1
reported: 76%
//
molecule: CC(=C(C1=NCCN1C(C)c1ccc(Cl)nc1)[N+](=O)[O-])c1ccoc1 (racemic)
reported: 52%
//
molecule: O=[N+]([O-])C(=Cc1ccccc1)C1=NCCN1Cc1ccc(Cl)nc1
reported: 97%

The values you see were collected from patent US8232407B2.
